Parameter GFP response vs DMSO: see the listing below.
- METHOD_DESCRIPTION: RPL19A-GFP modulators, yeast TOR pathway, confirmation, cell-based, S. cerevisiae, flow cytometry, cherry picks, mother/daughter gates (AID 2270)
- EXPERIMENTAL_SETUP: S. cerevisiae RPL19A-GFP strain, 3 h, measured here: daughter cell gate, at 10 µM, stronger effect = lower value, 100 = same GFP as DMSO wells
QUANTITY_NAME: GFP response vs DMSO (%)

{"MOLECULE": "CC(=O)Nc1ccc(NC(=O)c2nc(S(=O)(=O)Cc3cccc(C)c3)ncc2Cl)cc1", "RESULT_UNITS": "%", "ENDPOINT_VALUE": 99.5}
{"MOLECULE": "Cc1cccc(NC(=O)/C(C#N)=C/c2ccccc2Cl)n1", "RESULT_UNITS": "%", "ENDPOINT_VALUE": 91}
{"MOLECULE": "C=CCOc1ccc(C(=O)n2cc(C(=O)OC)c3ccccc32)cc1", "RESULT_UNITS": "%", "ENDPOINT_VALUE": 97.1}
{"MOLECULE": "CC(=O)Nc1cccc(C(=O)/C=C/c2ccc(C)cc2)c1", "RESULT_UNITS": "%", "ENDPOINT_VALUE": 96.8}
{"MOLECULE": "Cc1cccc(C)c1NC(=O)c1nc(S(=O)(=O)Cc2ccccc2)ncc1Cl", "RESULT_UNITS": "%", "ENDPOINT_VALUE": 96.4}
{"MOLECULE": "COC(=O)c1ccccc1OCC(=O)NC1CCCCC1", "RESULT_UNITS": "%", "ENDPOINT_VALUE": 83.8}
{"MOLECULE": "O=C(CNC(=O)c1ccncc1)N/N=C/c1cccc([N+](=O)[O-])c1", "RESULT_UNITS": "%", "ENDPOINT_VALUE": 98.6}
{"MOLECULE": "CC(=O)N(\\C=C/C=C/C=C1\\Sc2ccccc2C1=O)c1ccccc1", "RESULT_UNITS": "%", "ENDPOINT_VALUE": 106}
{"MOLECULE": "CCOC(=O)CSC1=NC(=O)/C(=C\\c2ccc(Cl)cc2)S1", "RESULT_UNITS": "%", "ENDPOINT_VALUE": 87.9}
{"MOLECULE": "CC(=O)Oc1ccc(/C=c2\\sc3ncnn3c2=O)cc1", "RESULT_UNITS": "%", "ENDPOINT_VALUE": 102}
{"MOLECULE": "Clc1ccccc1N=C1NN=C(c2cccs2)CS1", "RESULT_UNITS": "%", "ENDPOINT_VALUE": 93.4}
{"MOLECULE": "CS(=O)(=O)c1sc(C#N)c2c1C(=O)CC(c1ccccc1)C2 (stereo not drawn)", "RESULT_UNITS": "%", "ENDPOINT_VALUE": 111}
{"MOLECULE": "CCn1c(=O)c(C(C)=O)c(O)c2ccccc21", "RESULT_UNITS": "%", "ENDPOINT_VALUE": 101}
{"MOLECULE": "N#C/C(=C\\c1c(N2CCCCCC2)nc2ccccn2c1=O)C(=O)NCc1ccco1", "RESULT_UNITS": "%", "ENDPOINT_VALUE": 97.9}
{"MOLECULE": "Cc1cccc(NC(=O)c2nc(S(=O)(=O)Cc3ccccc3)ncc2Cl)c1", "RESULT_UNITS": "%", "ENDPOINT_VALUE": 92.7}
{"MOLECULE": "Cc1ccc(-c2nnc(NC(=O)c3ccc([N+](=O)[O-])o3)o2)c(C)c1", "RESULT_UNITS": "%", "ENDPOINT_VALUE": 99.3}
{"MOLECULE": "COc1ccc(N2C(=O)C(Cl)=C(N(CCO)Cc3ccccc3)C2=O)cc1", "RESULT_UNITS": "%", "ENDPOINT_VALUE": 99.1}
{"MOLECULE": "O=C(CCc1ccccc1)NNC(=S)NC(=O)c1ccccc1", "RESULT_UNITS": "%", "ENDPOINT_VALUE": 106}
{"MOLECULE": "COc1ccc(/C=C/C(=O)NC(=S)NNC(=O)c2cnccn2)cc1", "RESULT_UNITS": "%", "ENDPOINT_VALUE": 91.1}
{"MOLECULE": "CCN(CC)c1ccc(/C=C/c2cccc[n+]2C)c(OC)c1", "RESULT_UNITS": "%", "ENDPOINT_VALUE": 103}
{"MOLECULE": "CC(C)c1nnc(SCC(=O)N2CCc3ccccc32)n1C", "RESULT_UNITS": "%", "ENDPOINT_VALUE": 101}
{"MOLECULE": "O=C(c1ccccc1F)N1CCN(c2ccccc2)CC1", "RESULT_UNITS": "%", "ENDPOINT_VALUE": 97.9}
{"MOLECULE": "N#C/C(=C\\c1c(N2CCN(c3ccccc3)CC2)nc2ccccn2c1=O)C(N)=O", "RESULT_UNITS": "%", "ENDPOINT_VALUE": 99.1}

---

- METHOD_DESCRIPTION: yeast V-ATPase proton transport modulators, S. cerevisiae, pHLuorin, HTS validation (AID 504600);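 further: plate controls were DMSO for no effect and reference compound for full effect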
- EXPERIMENTAL_SETUP: S. cerevisiae pHLuorin cytosolic pH, at 10 µM, stronger effect = higher value
Activity calls are given as the source filed them. Cut-off read from the data, not from the text of the source: active = response above about 15%; inactive = the rest.
QUANTITY_NAME: response

{"COMPOUND": "COC1CCCCC1Nc1ccc(C)c(C)c1 (configuration not stated)", "ENDPOINT_VALUE": "0.08% (inactive)"}
{"COMPOUND": "COc1cc(C2C(C(=O)c3ccc(C)o3)=C(O)C(=O)N2Cc2cccnc2)ccc1O (configuration not stated)", "ENDPOINT_VALUE": "4.05% (inactive)"}
{"COMPOUND": "COc1ccc(/C=C2\\CCn3c2nc2cc(C(=O)O)ccc2c3=O)cc1OC", "ENDPOINT_VALUE": "0.13% (inactive)"}
{"COMPOUND": "COc1ccc(C(=O)/C=C/c2ccc(OC(=O)c3cc(OC)c(OC)c(OC)c3)cc2)cc1", "ENDPOINT_VALUE": "-3.29% (inactive)"}
{"COMPOUND": "CC(=O)NCCCCCCNC(C)=O", "ENDPOINT_VALUE": "6% (inactive)"}
{"COMPOUND": "CC(=O)OCC(OC(C)=O)C(OC(C)=O)C(OC(C)=O)C(=O)Nc1cccc(C)c1 (configuration not stated)", "ENDPOINT_VALUE": "1.1% (inactive)"}
{"COMPOUND": "COc1ccc(O)c(N)c1", "ENDPOINT_VALUE": "3.74% (inactive)"}
{"COMPOUND": "CC(=O)Oc1ccc(C(=O)O)cc1OC(C)=O", "ENDPOINT_VALUE": "0.26% (inactive)"}
{"COMPOUND": "COc1ccc(C(=O)/C=C/c2cc(C(=O)O)cc3c2OCOC3)c(O)c1", "ENDPOINT_VALUE": "-6.09% (inactive)"}
{"COMPOUND": "COc1cc(=O)n(C)c2ccccc12", "ENDPOINT_VALUE": "3.71% (inactive)"}
{"COMPOUND": "Cc1ccc2[nH]c3c(c2c1)CN(C(=O)CN1CCSCC1)CC3", "ENDPOINT_VALUE": "0.82% (inactive)"}
{"COMPOUND": "Cc1ccc2[nH]c3c(=O)n(CCCN4CCN(C)CC4)cnc3c2c1", "ENDPOINT_VALUE": "-6.94% (inactive)"}

---

- METHOD_DESCRIPTION: modulators of CIT2-GFP expression in yeast, confirmation, S. cerevisiae, GFP fusion, cherry picks, mother/daughter gates (AID 2274)
- EXPERIMENTAL_SETUP: S. cerevisiae CIT2-GFP strain, flow cytometry, 3 h; at 10 µM; stronger effect = higher value

{"MOLECULE": "Cc1nn(Cc2ccc([N+](=O)[O-])cc2)c(=O)n1-c1cccc(Cl)c1", "GFP response, % of DMSO / %": 99.7}
{"MOLECULE": "Clc1cccc(Cn2ncc3ccccc32)c1", "GFP response, % of DMSO / %": 95.5}
{"MOLECULE": "Cc1ccc(CS(=O)(=O)c2ncc(Cl)c(C(=O)Nc3nnc(C(C)C)s3)n2)cc1", "GFP response, % of DMSO / %": 101}
{"MOLECULE": "CCC(=O)Oc1oc(-c2ccccc2)nc1C=Nc1ccc(C)cc1", "GFP response, % of DMSO / %": 108}
{"MOLECULE": "Cc1ccc(C)c(NC(=O)c2ccccc2O)c1", "GFP response, % of DMSO / %": 93.1}
{"MOLECULE": "COc1cccc2c1Oc1ncccc1N(C(=O)CCC(=O)NCc1ccccc1)C2", "GFP response, % of DMSO / %": 98.8}
{"MOLECULE": "COC(=O)C1=C(C)NC(C)=C(C(=O)OC)C1c1ccc(OC(=O)c2oc3ccccc3c2C)c(OC)c1", "GFP response, % of DMSO / %": 103}
{"MOLECULE": "COc1ccc(N(CC(=O)N/N=C/c2cc(OC)ccc2OC)S(=O)(=O)c2ccccc2)cc1", "GFP response, % of DMSO / %": 99.7}
{"MOLECULE": "COc1ccc(C2C3=C(CCCC3=O)N(CC(=O)O)C3=C2C(=O)CCC3)cc1Cl", "GFP response, % of DMSO / %": 111}
{"MOLECULE": "CCCc1[nH]nc2c1C(c1ccc(OC)c(Cn3nnc4ccccc43)c1)C(C#N)=C(N)O2 (stereo not given)", "GFP response, % of DMSO / %": 99.7}
